tgt: T1, murine OX40 (murine, UniProt P47741 20-211, limits assumed)
T1 construct: also called mouse OX40
T1 sequence (looked up): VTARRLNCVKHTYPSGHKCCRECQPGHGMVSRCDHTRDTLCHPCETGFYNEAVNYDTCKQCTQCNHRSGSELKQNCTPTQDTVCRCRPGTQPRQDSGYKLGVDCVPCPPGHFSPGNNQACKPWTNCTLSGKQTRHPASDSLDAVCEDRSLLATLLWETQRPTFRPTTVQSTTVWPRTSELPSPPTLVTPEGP
experimentDescription: ELISA

binder: 1482/1483 (antibody, V domains shown, OX40 antibody, tested as IgG) VH: EVQLLESGGGLVQPGGSLRLSCAASGFTFSSYAMSWVRQAPGKGLEWVSYISYYSGYTYYADSVKGRFTISRDNSKNTLYLQMNSLRAEDTAVYYCARGYGYLDYWGQGTLVTVSS VL: DIQMTQSPSSLSASVGDRVTITCRASQSISSYLNWYQQKPGKAPKLLIYAASSLQSGVPSRFSGSGSGTDFTLTISSLQPEDFATYYCQQYGSLLTFGQGTKLEIK
binding result: no binding
--
binder: 1524/1525 (antibody, V domains shown, OX40 antibody, tested as IgG) VH: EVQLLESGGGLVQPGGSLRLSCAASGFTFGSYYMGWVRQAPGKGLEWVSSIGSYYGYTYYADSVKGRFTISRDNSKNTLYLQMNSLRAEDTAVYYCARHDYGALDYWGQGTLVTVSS VL: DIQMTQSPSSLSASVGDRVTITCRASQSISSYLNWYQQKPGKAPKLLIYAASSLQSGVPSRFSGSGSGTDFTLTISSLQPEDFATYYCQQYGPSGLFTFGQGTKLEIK
binding result: no binding
--
binder: 1166/1167 (antibody, V domains shown) VH: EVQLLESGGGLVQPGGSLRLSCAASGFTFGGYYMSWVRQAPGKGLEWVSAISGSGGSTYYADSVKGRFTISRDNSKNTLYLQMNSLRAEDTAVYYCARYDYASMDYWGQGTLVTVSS VL: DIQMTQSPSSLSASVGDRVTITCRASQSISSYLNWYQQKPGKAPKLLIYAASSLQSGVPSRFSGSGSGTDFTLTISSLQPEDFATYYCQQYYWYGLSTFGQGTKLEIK
binding result: no binding
